Molecular target: Macrophage colony-stimulating factor 1 receptor (Homo sapiens);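 further: value comes from the Navigating the Kinome screening panel, CSF1R member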
Sequence (P07333 whole entry): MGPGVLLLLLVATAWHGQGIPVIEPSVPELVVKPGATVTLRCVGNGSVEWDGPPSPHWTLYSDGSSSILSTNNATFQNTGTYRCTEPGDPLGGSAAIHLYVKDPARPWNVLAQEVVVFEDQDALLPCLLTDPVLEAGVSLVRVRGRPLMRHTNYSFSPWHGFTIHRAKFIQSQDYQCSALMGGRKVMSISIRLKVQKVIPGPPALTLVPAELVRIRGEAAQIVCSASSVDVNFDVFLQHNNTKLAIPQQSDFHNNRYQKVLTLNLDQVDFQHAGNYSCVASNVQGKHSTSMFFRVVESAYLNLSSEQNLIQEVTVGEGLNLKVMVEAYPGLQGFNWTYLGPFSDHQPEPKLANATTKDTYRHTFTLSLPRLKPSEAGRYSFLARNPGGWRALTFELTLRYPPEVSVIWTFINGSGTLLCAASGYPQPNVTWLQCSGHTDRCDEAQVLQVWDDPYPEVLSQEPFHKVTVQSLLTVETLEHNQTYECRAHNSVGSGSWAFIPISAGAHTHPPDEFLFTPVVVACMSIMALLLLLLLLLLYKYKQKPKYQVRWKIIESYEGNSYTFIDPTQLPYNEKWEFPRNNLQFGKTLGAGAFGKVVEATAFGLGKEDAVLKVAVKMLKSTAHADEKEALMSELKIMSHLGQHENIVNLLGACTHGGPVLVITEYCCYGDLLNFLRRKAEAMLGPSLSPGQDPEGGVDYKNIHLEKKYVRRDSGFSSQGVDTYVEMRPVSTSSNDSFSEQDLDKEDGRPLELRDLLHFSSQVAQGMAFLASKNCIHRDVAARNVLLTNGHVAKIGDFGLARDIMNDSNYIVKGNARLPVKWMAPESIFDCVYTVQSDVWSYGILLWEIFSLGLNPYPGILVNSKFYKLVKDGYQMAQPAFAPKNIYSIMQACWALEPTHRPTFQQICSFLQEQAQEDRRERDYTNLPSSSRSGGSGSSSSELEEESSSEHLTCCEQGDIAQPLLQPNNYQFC
Assay type: functional
The source made the active and inactive calls.
Classes used: active, inactive

>>> label_value("O=c1[nH]c2cc(Br)cnc2[nH]1")
"inactive"
>>> label_value("O=C(Nc1cccc(C(F)(F)F)n1)Nc1ccnc2cc(Cl)ccc12")
"inactive"
>>> label_value("O=C(Nc1cccc(C(F)(F)F)n1)Nc1ccnc2cc(OC(F)F)ccc12")
"inactive"
>>> label_value("CCC1CC(NS(=O)(=O)C2CC2)CC1c1ncc2cnc3[nH]ccc3n12 (centres undefined)")
"active"

---

Target: Oxysterols receptor LXR-beta (Homo sapiens)
Sequence (P55055 whole entry, the tested form may be a part): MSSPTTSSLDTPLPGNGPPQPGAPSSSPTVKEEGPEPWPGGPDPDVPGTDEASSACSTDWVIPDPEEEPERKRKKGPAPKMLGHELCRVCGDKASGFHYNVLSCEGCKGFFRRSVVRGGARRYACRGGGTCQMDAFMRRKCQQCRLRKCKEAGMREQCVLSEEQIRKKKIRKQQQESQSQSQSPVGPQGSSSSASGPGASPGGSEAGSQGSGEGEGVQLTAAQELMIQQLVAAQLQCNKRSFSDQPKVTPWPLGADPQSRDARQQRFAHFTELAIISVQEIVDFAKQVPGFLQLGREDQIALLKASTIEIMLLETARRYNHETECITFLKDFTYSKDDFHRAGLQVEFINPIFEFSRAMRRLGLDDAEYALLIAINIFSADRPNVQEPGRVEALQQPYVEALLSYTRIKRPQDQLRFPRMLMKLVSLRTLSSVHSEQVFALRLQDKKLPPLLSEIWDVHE
Test: LXR agonists, Gal4 luciferase reporter, dose response, counter-screen for ssDAF-12 agonist project, cell-based, luminescence, HEK293, S. stercoralis campaign (AID 720737)
Type: functional
Conditions: read-out: IC50 (the source's name)
The source made the active and inactive calls.
Quick reference for EC50 among some compounds
Readout Type: EC50

>>> assay_value("Oc1c(Cl)cc(Cl)cc1/C=N\\c1cc(C(F)(F)F)ccc1N1CCc2ccccc2C1")
"> 67.5 µM (inactive)"
>>> assay_value("CCOC(=O)/C(C#N)=C/c1cn(CCOc2ccccc2)c2ccccc12")
"> 67.6 µM (inactive)"
>>> assay_value("Nc1cc2nn(-c3ccccc3)nc2cc1Cl")
"> 67.5 µM (inactive)"
>>> assay_value("Cc1ccc(Nc2nc(-c3cccnc3)cs2)cc1C")
"> 67.6 µM (inactive)"
>>> assay_value("O=C(CCNc1ccc(Cc2ccncc2)cc1)c1ccc([N+](=O)[O-])cc1")
"> 67.5 µM (inactive)"

---

Target: DNA repair protein RAD52 homolog (Homo sapiens, UniProt P43351)
Sequence (P43351 whole entry): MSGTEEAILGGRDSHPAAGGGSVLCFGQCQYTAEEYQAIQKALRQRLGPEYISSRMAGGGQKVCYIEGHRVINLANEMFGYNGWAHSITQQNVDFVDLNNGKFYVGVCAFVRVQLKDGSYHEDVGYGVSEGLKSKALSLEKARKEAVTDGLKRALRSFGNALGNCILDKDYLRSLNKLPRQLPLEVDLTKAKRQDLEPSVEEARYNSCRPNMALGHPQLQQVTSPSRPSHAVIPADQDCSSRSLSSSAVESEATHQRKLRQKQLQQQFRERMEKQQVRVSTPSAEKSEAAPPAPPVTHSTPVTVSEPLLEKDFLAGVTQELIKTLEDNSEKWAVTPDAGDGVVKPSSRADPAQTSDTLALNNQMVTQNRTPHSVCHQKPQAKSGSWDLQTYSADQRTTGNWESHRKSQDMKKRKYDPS
Format: functional, biochemical
Counter-ions that a name gives are not always drawn. Calls of active or inactive are those of the source.
Below, each of the molecules is paired with its reported AC50 value.
Readout Type: AC50

>>> assay_value("CN1CCc2cccc3c2[C@H]1Cc1ccc(O)c(O)c1-3 [APOMORPHINE HYDROCHLORIDE]")
"7.1 µM (active)"
>>> assay_value("CCOC(=O)c1c(NC(=O)C(NCCN(C)C)c2ccccc2)sc2c1CCCC2 (stereo not drawn)")
"10 µM (active)"
>>> assay_value("CN(C)CCCNc1cc(O)c2ncccc2c1")
"1.15 µM (active)"
>>> assay_value("OCCN1CCN(CCCN2c3ccccc3Sc3ccc(C(F)(F)F)cc32)CC1")
"12.7 µM (active)"
>>> assay_value("COc1cc2c3cc1Oc1cc(ccc1O)C[C@@H]1c4c(cc(OC)c(O)c4Oc4ccc(cc4)C[C@H]3N(C)CC2)CCN1C")
"35.2 µM (active)"
>>> assay_value("CCN(CC)CCn1c2ccc(Cl)cc2c2nc(C)sc21")
"5.39 µM (active)"
>>> assay_value("CN(C)CCCN(C(=O)c1ccco1)c1nc2cc3c(cc2s1)OCO3")
"25.2 µM (active)"
>>> assay_value("CCCCN(CC)CCCNC(=S)Nc1ccc2nc(N3CCN(C)CC3)cc(C)c2c1")
"1.95 µM (active)"

---

Target: Corticotropin-releasing factor receptor 2/Corticotropin-releasing factor-binding protein (Homo sapiens, UniProt P24387+Q13324)
Sequence (Q13324 whole entry): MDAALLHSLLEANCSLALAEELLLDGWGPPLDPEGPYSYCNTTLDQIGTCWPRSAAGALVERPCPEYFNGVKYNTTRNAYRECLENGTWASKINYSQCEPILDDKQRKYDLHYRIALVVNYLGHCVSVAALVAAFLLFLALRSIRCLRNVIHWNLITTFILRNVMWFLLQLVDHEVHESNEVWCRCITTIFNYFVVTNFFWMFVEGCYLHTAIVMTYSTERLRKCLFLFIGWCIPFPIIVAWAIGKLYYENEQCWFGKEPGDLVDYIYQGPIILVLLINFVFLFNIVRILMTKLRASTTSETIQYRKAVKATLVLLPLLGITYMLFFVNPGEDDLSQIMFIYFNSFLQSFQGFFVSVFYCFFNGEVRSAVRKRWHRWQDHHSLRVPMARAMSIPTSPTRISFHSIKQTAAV
Sequence (P24387 whole entry): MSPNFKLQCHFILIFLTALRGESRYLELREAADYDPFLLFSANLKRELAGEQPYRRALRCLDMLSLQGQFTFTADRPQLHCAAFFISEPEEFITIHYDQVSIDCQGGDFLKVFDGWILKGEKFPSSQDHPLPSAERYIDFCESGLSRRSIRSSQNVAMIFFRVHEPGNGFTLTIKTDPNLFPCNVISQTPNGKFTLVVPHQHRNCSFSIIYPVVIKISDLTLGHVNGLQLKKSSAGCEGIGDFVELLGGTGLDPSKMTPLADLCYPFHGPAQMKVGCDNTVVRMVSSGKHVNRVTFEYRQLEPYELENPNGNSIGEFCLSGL
Assay: Dose Response confirmation of uHTS hits for small molecule antagonists of the CRF-binding protein and CRF-R2 receptor complex.
Assay type: functional
Conditions: read-out: IC50_Mean
Calls of active or inactive are those of the source.
Possible outcomes: yes for active, no for inactive

>>> label_value("Cc1c(CC(Cl)(Cl)Cl)c2c(n1O)CC(C)(C)CC2=O")
"yes"
>>> label_value("O=C(CC(c1ccccc1)c1ccccc1O)NCc1ccccc1Cl (stereo not drawn)")
"yes"
>>> label_value("CN(c1ccccc1)S(=O)(=O)c1ccc2c(c1)oc(=O)n2C")
"no"
>>> label_value("CC(=O)N1c2ccc(S(=O)(=O)N(C)CC(=O)NC3CCCC3)cc2CC1C (stereo not drawn)")
"no"
>>> label_value("C[C@H](CO)N1C[C@H](C)[C@@H](CN(C)C(=O)c2ccc3ccn(C)c3c2)OCc2cn(nn2)CCCC1=O")
"no"
>>> label_value("c1ccc(C(c2nnnn2Cc2cccs2)N2CCN(C3CCCC3)CC2)cc1 (stereo not drawn)")
"no"
>>> label_value("NC(=O)CSc1nnnn1-c1ccc2c(c1)OCCO2")
"no"
>>> label_value("Cc1nc(-c2ccncc2)nc(NCCNc2ccc(C(F)(F)F)cn2)c1Cl")
"no"
>>> label_value("CN(C)S(=O)(=O)c1ccc(C(=O)OCC(=O)Nc2ccc(OC(F)F)cc2)cc1")
"no"
>>> label_value("O=C(CSCc1ccccc1Br)NNC(=S)NCc1ccco1")
"no"
>>> label_value("O=C(O)c1cccc(NC(=NS(=O)(=O)c2ccccc2)c2ccccc2)c1")
"no"
>>> label_value("Cc1ccc(Cl)cc1N1CCN(C(=O)Cc2c(C(=O)O)[nH]c3ccccc23)CC1")
"yes"
>>> label_value("O=C(O)c1ccc(-c2nc(-c3ccc(Cl)cc3Cl)cs2)cc1")
"yes"

---

# Cytochrome P450 3A4 (Homo sapiens): AC50 values follow;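 further: CYP3A4 tested as one member of a cytochrome P450 panel screen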
# Sequence (P08684 whole entry): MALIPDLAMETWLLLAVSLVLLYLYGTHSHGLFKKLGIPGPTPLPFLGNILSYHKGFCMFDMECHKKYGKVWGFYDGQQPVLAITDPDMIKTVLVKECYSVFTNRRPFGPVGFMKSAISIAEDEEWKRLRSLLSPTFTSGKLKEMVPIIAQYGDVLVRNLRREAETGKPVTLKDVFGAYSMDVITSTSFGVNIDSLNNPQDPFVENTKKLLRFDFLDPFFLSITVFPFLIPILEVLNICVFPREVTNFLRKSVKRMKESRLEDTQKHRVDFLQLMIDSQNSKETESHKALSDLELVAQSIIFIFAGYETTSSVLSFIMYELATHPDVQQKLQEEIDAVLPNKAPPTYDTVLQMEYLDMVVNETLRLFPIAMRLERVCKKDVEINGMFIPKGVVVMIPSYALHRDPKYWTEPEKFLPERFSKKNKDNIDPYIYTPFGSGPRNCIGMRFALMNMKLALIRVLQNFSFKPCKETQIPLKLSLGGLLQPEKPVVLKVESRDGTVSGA
Readout Type: AC50

>>> assay_value("C=CCn1c(C)c(C(C)=O)c(N2CCN(c3ccccc3)CC2)nc1=S")
"25.1 µM (inconclusive)"
>>> assay_value("CCN(CC)Cc1nc(O)c2c(n1)-c1ccccc1CC21CCCC1")
"14.1 µM (inconclusive)"
>>> assay_value("Cc1cc2cc(C=O)c(Cl)nc2cc1C")
"10 µM (inconclusive)"
>>> assay_value("O=C(CN1CCN(c2ncccn2)CC1)NCCC1=CCCCC1")
"17.8 µM (inconclusive)"
>>> assay_value("CCCC(=O)Nc1ccc(C(=O)Nc2cc(C(F)(F)F)ccc2Cl)cc1")
"15.8 µM (inconclusive)"
>>> assay_value("Cc1ccc(-c2cnc(NC(=O)CCC(=O)N3CCCCC3)n2C)cc1")
"39.8 µM (inconclusive)"
>>> assay_value("COC(=O)[C@@H]1CC[C@H](C)[C@@H](c2ccc(C)cc2)N1C(=O)c1ccc(/C=N\\O[C@@H](C)c2cn([C@H]3COC[C@H]3O)nn2)cc1")
"3.16 µM (inconclusive)"
>>> assay_value("C/C(=C\\C1CCCCC1)C(NC(=O)c1ccc(C(F)(F)F)cc1)c1ccc(-c2ccccc2)cc1 (stereo not given)")
"12.6 µM (inconclusive)"
>>> assay_value("CO[C@@H]1/C=C\\CC(=O)N[C@@H](C)C(=O)OC[C@@H](OC)[C@H](C)CCCC(=O)OC[C@H]1C")
"3.16 µM (inconclusive)"
>>> assay_value("CC(Cc1ccccc1)N/C=C1\\CC(=O)NC1=O (stereo not given)")
"3.98 µM (inconclusive)"

---

Molecular target: UniProt P49840
Sequence (P49840 whole entry): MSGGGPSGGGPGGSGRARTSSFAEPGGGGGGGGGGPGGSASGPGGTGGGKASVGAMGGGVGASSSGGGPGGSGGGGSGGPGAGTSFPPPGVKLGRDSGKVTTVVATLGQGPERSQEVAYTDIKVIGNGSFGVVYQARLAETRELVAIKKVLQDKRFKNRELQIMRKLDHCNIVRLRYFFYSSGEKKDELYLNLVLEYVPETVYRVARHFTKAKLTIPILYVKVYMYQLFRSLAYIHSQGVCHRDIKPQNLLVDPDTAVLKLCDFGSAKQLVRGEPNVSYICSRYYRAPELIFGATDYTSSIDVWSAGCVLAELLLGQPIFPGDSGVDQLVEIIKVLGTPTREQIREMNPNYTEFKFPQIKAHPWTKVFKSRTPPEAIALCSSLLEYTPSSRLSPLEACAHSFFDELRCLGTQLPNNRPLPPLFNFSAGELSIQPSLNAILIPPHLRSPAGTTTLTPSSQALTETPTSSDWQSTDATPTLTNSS
Type: functional
Calls of active or inactive are those of the source.
Outcome codes: 1 (yes) = active, 0 (no) = inactive

>>> label_value("CCC1CC(NS(=O)(=O)C2CC2)CC1c1ncc2cnc3[nH]ccc3n12 (centres undefined)")
"0 (no)"
>>> label_value("O=C(Nc1cccc(C(F)(F)F)n1)Nc1ccnc2cc(Cl)ccc12")
"1 (yes)"
>>> label_value("O=C(Nc1cccc(C(F)(F)F)n1)Nc1ccnc2cc(OC(F)F)ccc12")
"1 (yes)"
>>> label_value("O=c1[nH]c2cc(Br)cnc2[nH]1")
"1 (yes)"

---

Biological target: Fatty acid synthase (Homo sapiens, UniProt P49327)
Experiment: FAS thioesterase domain inhibitors, dose response, biochemical, kinetic fluorescence intensity (AID 624326);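 further: rate of fluorescence rise from hydrolysis of a fluorogenic O-methyl fluorescein ester substrate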
Assay type: functional
Calls of active or inactive are those of the source.
Reported IC50 is given for each of the following molecules.
Readout Type: IC50

>>> assay_value("O=C(N/C(=C/c1ccccc1)C(=O)N1CCOCC1)c1ccc([N+](=O)[O-])cc1")
"7.55 µM (active)"
>>> assay_value("COc1cc(C(=O)N/N=C/c2coc3ccc(Cl)cc3c2=O)ccc1O")
"7.45 µM (active)"
>>> assay_value("O=C(COC(=O)c1cc([N+](=O)[O-])ccc1NCCO)c1ccccc1")
"8.98 µM (active)"
>>> assay_value("COc1ccc(NC(=O)COC(=O)c2cc([N+](=O)[O-])ccc2N2CCOCC2)cc1")
"2.1 µM (active)"
>>> assay_value("O=C(CCC(=O)Nc1ccc(Br)cc1)N/N=C/c1cc([N+](=O)[O-])ccc1O")
"8.73 µM (active)"
>>> assay_value("CN(C)CCCNC(=O)/C(=C\\C=C\\c1ccccc1)NC(=O)c1ccc([N+](=O)[O-])cc1")
"4.11 µM (active)"
>>> assay_value("CN(Cc1ccccc1)C(=O)COC(=O)c1cc(Cl)nc(Cl)c1")
"13.5 µM (active)"

---

EC50 reference
Target: Zinc finger protein mex-5 (Caenorhabditis elegans, UniProt Q9XUB2)
Sequence (Q9XUB2 whole entry): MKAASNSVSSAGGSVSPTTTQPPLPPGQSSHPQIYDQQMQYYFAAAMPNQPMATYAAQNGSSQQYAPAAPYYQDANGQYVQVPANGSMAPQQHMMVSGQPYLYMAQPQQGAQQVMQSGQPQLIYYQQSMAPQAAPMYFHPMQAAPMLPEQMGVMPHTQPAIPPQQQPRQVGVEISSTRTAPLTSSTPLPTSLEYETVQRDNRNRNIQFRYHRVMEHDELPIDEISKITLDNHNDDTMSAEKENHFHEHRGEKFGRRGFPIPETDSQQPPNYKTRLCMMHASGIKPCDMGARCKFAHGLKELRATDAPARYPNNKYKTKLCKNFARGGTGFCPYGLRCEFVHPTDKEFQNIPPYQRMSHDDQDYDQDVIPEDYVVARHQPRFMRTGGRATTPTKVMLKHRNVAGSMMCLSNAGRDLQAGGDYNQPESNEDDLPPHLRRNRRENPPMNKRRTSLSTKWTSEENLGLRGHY
Assay: MEX-5/TCR-2 RNA interaction inhibitors, dose response, biochemical, C. elegans, fluorescence polarization (AID 1960)
Structures can show the parent of a compound that is named as a salt. The source made the active and inactive calls.
Readout Type: EC50

>>> assay_value("CN1C(=O)S/C(=C/c2cccn2-c2cccc(C(=O)O)c2)C1=O")
"> 300 µM (not active)"
>>> assay_value("CN1CCc2cccc3c2[C@H]1Cc1ccc(O)c(O)c1-3 [APOMORPHINE HYDROCHLORIDE]")
"4.42 µM (active)"
>>> assay_value("COc1ccc(C(=O)c2sc3nc(C)cc(-c4cccs4)c3c2N)cc1")
"11 µM (active)"
>>> assay_value("c1ccc2oc(CCc3nc4ccccc4o3)nc2c1")
"> 300 µM (not active)"
>>> assay_value("O=C1NC(=O)[C@@H]2C3c4ccccc4C=CN3[C@H](C(=O)c3cccs3)[C@H]12 (stereo not given in full)")
"16.4 µM (active)"
>>> assay_value("CC(=O)c1ccc(NC(=O)CSc2nnc(-c3ccncc3)o2)cc1")
"> 300 µM (not active)"
>>> assay_value("N#CC1=C(N)C(C#N)(C#N)C(c2cccnc2)C2COCC=C12 (stereo not given)")
"> 300 µM (not active)"
>>> assay_value("Cc1cc(/C=c2/sc3nc4ccccc4n3c2=O)c(C)n1-c1ccccn1")
"> 300 µM (not active)"
>>> assay_value("c1ccc(-c2nc(-c3ccccn3)nc(-c3ccccn3)n2)nc1")
"54.6 µM (active)"
>>> assay_value("CCOC(=O)C1Nc2ccc(C(F)(F)F)cc2C2C=CCC12 (stereo not given)")
"> 300 µM (not active)"
